Assay: Toxicokinetic assessment of systemic exposure in minipigs following dermal administration
Type: in vivo
Settings: female, Göttingen, minipig, plasma, topical or ocular, 12 mg/kg/day, Day 28, Female, 12 mg/kg/day, 0.6% gel, read-out: AUC0-24
MEASUREMENT LABEL: AUC(0-t) (ng·h/mL)
Numeric answer only, unit ng·h/mL assumed.

Problem: Provide only the value of recorded AUC(0-t) for Cc1nc(C)c(-c2ccc([C@H]3CC[C@H](CC(=O)O)CC3)cc2)nc1C(N)=O [DMVT-503]
Solution: 25400

====

Test: Toxicokinetic assessment of systemic exposure in minipigs following dermal administration
Assay type: in vivo
Conditions: male, Göttingen, minipig, plasma, topical or ocular, 12 mg/kg/day, Day 1, Male, 12 mg/kg/day, 0.6% gel, read-out: AUC0-24
MEASUREMENT LABEL: AUC(0-t) (ng·h/mL)
Numeric answer only, unit ng·h/mL assumed.

Problem: Provide only the value of recorded AUC(0-t) for Cc1nc(C)c(-c2ccc([C@H]3CC[C@H](CC(=O)O)CC3)cc2)nc1C(N)=O
Solution: 10500
